- target: T1, HCV bt-151-171 (Peptide 3, HCVc 151-171) (Hepatitis C virus (numbering per HCV-1), biotin (carboxy-terminal per; N-terminal per))
- T1 peptide: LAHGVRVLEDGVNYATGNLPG
- assay: EIA, captured mAb + biotin peptide
Listing: Reactivity (OD 492 nm) of selected binders
propertyLabel: Reactivity (OD 492 nm) (OD units)

[[record]]
binder = "HCV 208A-293 (antibody, V domains shown) VH: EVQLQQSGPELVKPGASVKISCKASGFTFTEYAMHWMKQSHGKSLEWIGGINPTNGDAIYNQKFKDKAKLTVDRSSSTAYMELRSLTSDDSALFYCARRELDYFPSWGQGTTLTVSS VL: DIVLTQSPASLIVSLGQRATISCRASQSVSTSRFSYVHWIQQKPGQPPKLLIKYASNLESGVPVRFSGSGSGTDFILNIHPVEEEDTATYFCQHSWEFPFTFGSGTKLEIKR"
propertylabel = "Reactivity (OD 492 nm)"
resultunit = "OD units"
datavalue = 0.11

[[record]]
binder = "HCV 208B-556 (antibody, V domains shown) VH: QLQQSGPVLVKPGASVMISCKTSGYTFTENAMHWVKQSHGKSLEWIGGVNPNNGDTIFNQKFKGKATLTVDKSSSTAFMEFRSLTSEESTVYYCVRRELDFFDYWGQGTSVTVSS VL: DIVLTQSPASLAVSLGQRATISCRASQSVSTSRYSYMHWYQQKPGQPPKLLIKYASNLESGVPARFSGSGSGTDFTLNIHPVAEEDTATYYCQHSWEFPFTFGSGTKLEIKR"
propertylabel = "Reactivity (OD 492 nm)"
resultunit = "OD units"
datavalue = 0.18

[[record]]
binder = "HCV 208B-408 (antibody, V domains shown) VH: EVKLVESGGGLVQPGGSLRLSCASSGFTFTDYYMSWVRQPPGKALEWLGFIRNKAYGYTTEFSASVNGRFTISRDDSQSVPYLQMNTLRAEDSATYYCARVLYYDYGGFAYWGQGTLVTVST VL: DIQMTQSPASLSASVGETVTITCRASGNIHTYLAWYQQKQGKSPQLLVYNANTLADGVPSRFSGSGSGTQFSLKINSLQPDDFGSYYCQHFWSAPWTFGGGTQLEIKR"
propertylabel = "Reactivity (OD 492 nm)"
resultunit = "OD units"
datavalue = 0.16

[[record]]
binder = "HCV 208B-1094 (antibody, V domains shown) VH: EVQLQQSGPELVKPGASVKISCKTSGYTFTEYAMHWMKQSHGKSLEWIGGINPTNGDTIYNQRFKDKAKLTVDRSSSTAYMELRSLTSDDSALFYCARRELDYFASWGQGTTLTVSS VL: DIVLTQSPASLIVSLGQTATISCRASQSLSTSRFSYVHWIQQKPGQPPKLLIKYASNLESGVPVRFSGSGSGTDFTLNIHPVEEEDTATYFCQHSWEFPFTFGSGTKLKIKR"
propertylabel = "Reactivity (OD 492 nm)"
resultunit = "OD units"
datavalue = 0.13

[[record]]
binder = "HCV 208A-983 (antibody, V domains shown) VH: QGQMQQSGAELVKPGASVKLSCKTSGFTFSSSYFSWLKQKPGQSLEWIAWIYAGTGNTIYNQKFTDKAQLTVDTASSTAFMQLSSLTIEDSAIYYCAISGTGFTYWGQGTLVTVSA VL: DVLMTQTPLSLPVNLGDQASISCRSSQSLLHSNGNTYLEWFLQKPGQSPKLLIYNVSNRFSGVPDRFSGSGSGTDFTLKISRVEAEDLGVYYCFQGSHVPFTFGSGTKLAIKR"
propertylabel = "Reactivity (OD 492 nm)"
resultunit = "OD units"
datavalue = 0.05

[[record]]
binder = "HCV 208A-605 (antibody, V domains shown) VH: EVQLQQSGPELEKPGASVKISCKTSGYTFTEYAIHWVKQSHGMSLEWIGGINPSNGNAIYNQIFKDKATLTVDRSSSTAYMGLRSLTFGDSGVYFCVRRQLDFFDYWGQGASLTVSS VL: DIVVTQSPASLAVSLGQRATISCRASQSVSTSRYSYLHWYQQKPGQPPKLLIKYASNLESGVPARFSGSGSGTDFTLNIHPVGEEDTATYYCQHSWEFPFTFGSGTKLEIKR"
propertylabel = "Reactivity (OD 492 nm)"
resultunit = "OD units"
datavalue = 0.16

[[record]]
binder = "HCV 208B-327 (antibody, V domains shown) VH: EVQLVESGGGLVKPGGSLKLSCAASGFTFSDSYMYWVRQTPDQRLEWVATISDGGSYTFYPDSVKGRFTISRDNAQNNLYLQMSSLKSEDTAMYYCASPHAGYFGWFAYWGRGTLVTVSA VL: DIVMTQAAFSNPVTPGTSVSISCRSSKSLLHSNGITYLYWYLQKPGQSPQLLIYQMSKIASGVPDRFRSSGSGTDFTLRISRVEAADVGVYYCAQNLELPWTFGGGTKLEIKR"
propertylabel = "Reactivity (OD 492 nm)"
resultunit = "OD units"
datavalue = 0.49

[[record]]
binder = "HCV 208A-133 (antibody, V domains shown) VH: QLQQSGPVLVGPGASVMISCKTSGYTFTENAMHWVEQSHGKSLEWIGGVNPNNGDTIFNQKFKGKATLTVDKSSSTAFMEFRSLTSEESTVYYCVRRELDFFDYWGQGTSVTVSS VL: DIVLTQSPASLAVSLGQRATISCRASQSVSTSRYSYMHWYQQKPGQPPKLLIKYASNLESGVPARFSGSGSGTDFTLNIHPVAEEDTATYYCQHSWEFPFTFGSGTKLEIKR"
propertylabel = "Reactivity (OD 492 nm)"
resultunit = "OD units"
datavalue = 0.13

[[record]]
binder = "HCV 208B-353 (antibody, V domains shown) VH: EVQLVESGGDLVKPGGSLKLSCAASGFTFNHYGMSWVRQPPDKRLEWVATISSGGGYTYYPDSVKGRFTISRDNAKDTLSLQMSSLRSGDTAVYYCASLYGSLFAYWGQGTLVTVSA VL: DIVMTQSQKFMSTTVGDRVRVTCKASQNVGTAVAWYQQKPGQSPKLLIYSASNRYTGVPDRFTGSGSGTDFTLTITNMQSEDLADYFCQQYSTYPLTFGSGAKLEIKR"
propertylabel = "Reactivity (OD 492 nm)"
resultunit = "OD units"
datavalue = 0.07

[[record]]
binder = "HCV 208A-207 (antibody, V domains shown) VH: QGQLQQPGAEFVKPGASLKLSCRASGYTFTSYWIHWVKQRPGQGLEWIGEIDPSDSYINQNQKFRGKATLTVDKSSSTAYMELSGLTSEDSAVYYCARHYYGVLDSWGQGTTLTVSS VL: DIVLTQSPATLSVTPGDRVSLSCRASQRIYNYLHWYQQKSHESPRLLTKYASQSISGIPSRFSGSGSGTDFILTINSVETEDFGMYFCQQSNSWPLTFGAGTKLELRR"
propertylabel = "Reactivity (OD 492 nm)"
resultunit = "OD units"
datavalue = 0.08

